Assignment: determine reported IC50 for the given molecules.
test.target: HCV polymerase 1A (Δ21 NS5B, H77) (Hepatitis C virus genotype 1a)
Construct: 20 to 50 nM Δ21 NS5B
Sequence (P27958 2421-2990, stated change not applied): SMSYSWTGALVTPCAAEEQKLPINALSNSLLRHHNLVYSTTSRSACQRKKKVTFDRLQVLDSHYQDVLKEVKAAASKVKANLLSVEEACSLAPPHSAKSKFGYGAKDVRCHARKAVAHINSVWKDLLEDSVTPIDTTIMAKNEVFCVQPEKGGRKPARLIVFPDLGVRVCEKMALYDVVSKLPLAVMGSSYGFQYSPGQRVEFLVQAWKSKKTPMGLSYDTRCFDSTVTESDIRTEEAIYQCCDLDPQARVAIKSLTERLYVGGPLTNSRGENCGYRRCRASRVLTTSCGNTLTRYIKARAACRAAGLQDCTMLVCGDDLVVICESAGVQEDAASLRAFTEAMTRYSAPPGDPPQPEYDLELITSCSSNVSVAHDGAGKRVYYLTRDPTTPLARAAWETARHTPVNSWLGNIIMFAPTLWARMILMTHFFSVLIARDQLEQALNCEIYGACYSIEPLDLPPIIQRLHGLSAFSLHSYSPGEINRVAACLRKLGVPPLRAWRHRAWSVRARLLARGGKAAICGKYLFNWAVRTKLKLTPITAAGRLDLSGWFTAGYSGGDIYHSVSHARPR
protocol.summary: biochemical
test.settings: IC50 1a

> print(dat)
                                   molecule                               test.target  property.measured  observed.measurement
1  COc1c(I)cc(-n2ccc(=O)[nH]c2=O)cc1C#Cc1ccc(NS(C)(=O)=O)cc1C [IB-L2-1.15]  HCV polymerase 1A (Δ21 NS5B, H77) (Hepatitis C virus genotype 1a)               IC50        100 to 1000 nM
2  COc1c(C(=O)Nc2ccc(NC(C)=O)cc2)cc(N2CCC(=O)NC2=O)cc1C(C)(C)C [IA-L3-1.47]  HCV polymerase 1A (Δ21 NS5B, H77) (Hepatitis C virus genotype 1a)               IC50             > 1000 nM
3  COc1c(C(=O)Nc2ccc3c(c2)CS(=O)(=O)C3)cc(N2CCC(=O)NC2=O)cc1C(C)(C)C [IA-L3-2.3]  HCV polymerase 1A (Δ21 NS5B, H77) (Hepatitis C virus genotype 1a)               IC50             > 1000 nM
4  COc1c(C(=O)Nc2ccc(NS(=O)(=O)c3ccccc3)cc2)cc(N2CCC(=O)NC2=O)cc1C(C)(C)C [IA-L3-1.60]  HCV polymerase 1A (Δ21 NS5B, H77) (Hepatitis C virus genotype 1a)               IC50          10 to 100 nM

I need IC50 for every entry listed below, if you could help.
1. COc1cc(NS(C)(=O)=O)ccc1NC(=O)c1cc(N2CCC(=O)NC2=O)cc(C(C)(C)C)c1OC [IA-L3-1.85]
2. COCCS(=O)(=O)Nc1ccc(NC(=O)c2cc(N3CCC(=O)NC3=O)cc(C(C)(C)C)c2OC)cc1 [IA-L3-1.54]

Reply:
1: 100 to 1000 nM; 2: 10 to 100 nM

Task item: Annotate the molecule COc1c(-c2ccc(/C=N/NS(C)(=O)=O)cc2)cc(-n2ccc(=O)[nH]c2=O)cc1C(C)(C)C [IB-L0-1.1] with its measured IC50.
Reply: < 10 nM

====

test.target: HCV polymerase 1A (Δ21 NS5B, H77) (Hepatitis C virus genotype 1a)
Construct: 20 to 50 nM Δ21 NS5B
protocol.summary: biochemical
test.settings: IC50 1a
property.measured: IC50

> print(dat)
                                   compound  property.measured  observed.measurement
1  COc1c(C#Cc2ccccc2)cc(N2CCC(=O)NC2=O)cc1C(C)(C)C [IA-L2-1.4]               IC50        100 to 1000 nM

I need IC50 for every entry listed below, if you could help.
1. COc1c(CC(=O)c2ccc(NS(C)(=O)=O)cc2)cc(N2CCC(=O)NC2=O)cc1C(C)(C)C [IA-L12-1.1]
2. COc1c(COc2ccc(NS(C)(=O)=O)cc2)cc(N2CCC(=O)NC2=O)cc1C(C)(C)C [IA-L6-1.1]

Reply:
10 to 100 nM
10 to 100 nM

I need IC50 for every entry listed below, if you could help.
1. COc1c(C#Cc2ccc(NS(C)(=O)=O)cc2C(C)(C)C)cc(-n2ccc(=O)[nH]c2=O)cc1C(C)(C)C [IB-L2-1.10]
2. COCCOC(=O)N(c1ccc(NC(=O)c2cc(N3CCC(=O)NC3=O)cc(C(C)(C)C)c2OC)cc1)S(C)(=O)=O [IA-L3-1.77]
3. COc1c(C(=O)Nc2ccc(N(CC3CC3)S(C)(=O)=O)cc2)cc(N2CCC(=O)NC2=O)cc1C(C)(C)C [IA-L3-1.66]

Reply:
["< 10 nM", "> 1000 nM", "> 1000 nM"]

Task item: Please report IC50 with HCV polymerase 1A (Δ21 NS5B, H77) (Hepatitis C virus genotype 1a) for item COc1c(C(=O)Nc2ccc(N(COC(=O)C(C)(C)C)S(C)(=O)=O)cc2)cc(N2CCC(=O)NC2=O)cc1C(C)(C)C [IA-L3-1.65] .
Reply: > 1000 nM

====

Test system: genotype 1a-H77 subgenomic replicon cell line
protocol.summary: microbe, parasite or virus in culture
Format: cell-based, HCV
test.settings: Hepatitis C virus, read-out: EC50 1a
pEC50: −log10 of the molar value.
property.measured: pEC50

I need pEC50 for every entry listed below, if you could help.
1. COc1c(-c2ccc3cc(NS(C)(=O)=O)ccc3c2)cc(-n2ccc(=O)[nH]c2=O)cc1C(F)(F)C(F)(F)F [IB-L0-2.60]
2. COc1c(C#Cc2cc(F)c(NS(C)(=O)=O)cc2C)cc(N2CCC(=O)NC2=O)cc1C(C)(C)C [IA-L2-1.20]
3. COc1c(-c2ccc3cc(NS(C)(=O)=O)ccc3c2)cc(-n2ccc(=O)[nH]c2=O)cc1C(F)(F)F [IB-L0-2.56]
4. COc1c(-c2ccc3c(CNS(C)(=O)=O)csc3c2)cc(-n2ccc(=O)[nH]c2=O)cc1C(C)(C)C [IB-L0-2.11]
5. COc1c(-c2ccc3c(c2)/C(=N/NS(C)(=O)=O)CC3)cc(-n2ccc(=O)[nH]c2=O)cc1-c1cccs1 [IB-L0-2.51]

Reply:
1. 6.00 to 7.00
2. 7.00 to 8.00
3. 6.00 to 7.00
4. 7.00 to 8.00
5. 7.00 to 8.00

I need pEC50 for every entry listed below, if you could help.
1. COc1c(/C=C/c2ccc(NS(C)(=O)=O)c(F)c2)cc(-n2ccc(=O)[nH]c2=O)cc1C(C)(C)C [IB-L1-1.5]
2. COc1c(-c2ccc3c(c2)CCC3CNS(C)(=O)=O)cc(-n2ccc(=O)[nH]c2=O)cc1C(C)(C)C (stereo not drawn) [IB-L0-2.17]
3. COc1c(N(C)C(=O)c2ccc(NS(C)(=O)=O)cc2)cc(N2CCC(=O)NC2=O)cc1C(C)(C)C [IA-L4-1.7]

Reply:
7.00 to 8.00
7.00 to 8.00
< 6.00

====

Assignment: determine reported EC50 for the given compounds.
Test system: genotype 1a-H77 subgenomic replicon cell line
protocol.summary: microbe, parasite or virus in culture
Type: cell-based, HCV
test.settings: Hepatitis C virus, read-out: EC50 1a

The examples below pair each entry with its known result.
> print(dat)
                                   compound  property.measured  observed.measurement
1  CCc1cc(N2CCC(=O)NC2=O)cc(C(=O)Nc2ccc(NS(C)(=O)=O)cc2)c1OC [IA-L3-1.112]               EC50             > 1000 nM
2  COc1c(C#Cc2ccc(NS(C)(=O)=O)cc2Cl)cc(N2CCC(=O)NC2=O)cc1C(C)(C)C [IA-L2-1.14]               EC50               < 10 nM
3  COc1c(/C=C/c2ccc(NS(C)(=O)=O)cc2N)cc(-n2ccc(=O)[nH]c2=O)cc1C(C)(C)C [IB-L1-1.28]               EC50               < 10 nM

Task item: Annotate the compound CNS(=O)(=O)Cc1ccc(NC(=O)c2cc(N3CCC(=O)NC3=O)cc(C(C)(C)C)c2OC)cc1 [IA-L3-1.31] with its measured EC50.
Reply: > 1000 nM

====

test.target: HCV polymerase 1B (Δ21 NS5B, BK) (Hepatitis C virus genotype 1b)
Construct: 20 to 50 nM Δ21 NS5B
Sequence (P26663 2420-2989, stated change not applied): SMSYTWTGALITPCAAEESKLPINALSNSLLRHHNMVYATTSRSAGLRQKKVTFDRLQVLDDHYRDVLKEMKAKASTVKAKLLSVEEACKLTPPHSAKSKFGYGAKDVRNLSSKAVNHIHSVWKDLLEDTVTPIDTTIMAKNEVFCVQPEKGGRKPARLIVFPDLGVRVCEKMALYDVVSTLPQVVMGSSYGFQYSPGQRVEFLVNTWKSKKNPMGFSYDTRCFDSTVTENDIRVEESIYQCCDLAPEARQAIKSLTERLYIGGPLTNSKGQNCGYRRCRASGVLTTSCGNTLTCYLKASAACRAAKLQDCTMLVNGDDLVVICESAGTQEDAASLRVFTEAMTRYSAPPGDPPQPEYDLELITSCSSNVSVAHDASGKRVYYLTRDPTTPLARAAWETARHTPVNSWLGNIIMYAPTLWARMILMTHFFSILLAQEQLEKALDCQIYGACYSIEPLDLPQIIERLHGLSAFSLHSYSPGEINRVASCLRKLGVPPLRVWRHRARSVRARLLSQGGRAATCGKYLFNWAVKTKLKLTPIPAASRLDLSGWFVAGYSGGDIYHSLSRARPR
protocol.summary: biochemical
Procedure: HCV Polymerase Inhibition Assay Either two-fold serial dilutions (fractional inhibition assay) or a narrower range of dilutions spanning the IC50 of the inhibitor (tight binding assay) of the inhibitors were incubated with 20 mM Tris-Cl pH 7.4, 2 mM MnCl2, 1 mM dithiothreitol, 1 mM ethylene diamine tetraacetic acid (EDTA), 60 to 125 μM GTP and 20 to 50 nM Δ21 NS5B (HCV Strain 1B (BK, Genbank accession number M58335, or H77, Genbank accession number AF011751)) for 15 min at room temperature. […]
Assignment: determine reported IC50 for the given compounds.

> print(dat)
                                   compound  property.measured  observed.measurement
1  COc1c(C#Cc2ccc(NS(C)(=O)=O)c(C)c2)cc(N2CCC(=O)NC2=O)cc1C(C)(C)C               IC50          10 to 100 nM
2  CCN(Cc1cc(N2CCC(=O)NC2=O)cc(C(C)(C)C)c1O)C1CCCCC1 [IA-L9-1.1, 2,2,2-trifluoroacetate]               IC50             > 1000 nM

I need IC50 for every entry listed below, if you could help.
1. COc1c(C(=O)Nc2ccc(N(S(C)(=O)=O)S(C)(=O)=O)cn2)cc(N2CCC(=O)NC2=O)cc1C(C)(C)C
2. COc1c(-c2cccc(/C(C)=N/NS(C)(=O)=O)c2)cc(-n2ccc(=O)[nH]c2=O)cc1C(C)(C)C
3. COc1c(C(=O)Nc2ccc(NS(C)(=O)=O)cc2)cc(N2CCC(=O)NC2=O)cc1C(C)(C)C
4. COc1c(C#Cc2ccc(NS(C)(=O)=O)cc2NC(C)=O)cc(-n2ccc(=O)[nH]c2=O)cc1C(C)(C)C
5. COc1c(C(=O)Nc2ccc(NS(C)(=O)=O)c([N+](=O)[O-])c2)cc(N2CCC(=O)NC2=O)cc1C(C)(C)C
6. Cc1cc(NS(C)(=O)=O)ccc1C#Cc1cc(N2CCC(=O)NC2=O)cc(C(C)(C)C)c1
7. COc1c(C(=O)Nc2ccc(OS(C)(=O)=O)cc2)cc(N2CCC(=O)NC2=O)cc1C(C)(C)C
8. COc1c(C(=O)Nc2ccccc2)cc(N2CCC(=O)NC2=O)cc1C(C)(C)C

Reply:
1: > 1000 nM; 2: 100 to 1000 nM; 3: 10 to 100 nM; 4: 10 to 100 nM; 5: 100 to 1000 nM; 6: < 10 nM; 7: > 1000 nM; 8: 100 to 1000 nM

# credit: patent US8415351B2
